// data source = PubChem BioAssay (NCI)

Property: growth; scope: individual compounds
- Test system: UACC-257 melanoma
- experiment: NCI-60 one-dose screen, 48 h (100 = growth as untreated, 0 = no growth, -100 = all killed)
- test settings: 10 µM unless noted
This is part of a sample that, as a whole, favours compounds with a hit. Of some 83,000 tested, about 20% had one in any assay.
test readout: growth (%)

compound: Cc1c(CN2CCN(C(=O)[C@H](C)O)CC2)sc2c(N3CCOCC3)nc(-c3cnc(N)nc3)nc12
subject of test: UACC-257 melanoma
test readout: growth
unit descriptor: %
experimental value: -34.3
--
compound: COc1ccc(-c2ccc3ncc4c(c3c2)n(-c2ccc(N3CCNCC3)c(C(F)(F)F)c2)c(=O)n4C)cn1
subject of test: UACC-257 melanoma
test readout: growth
unit descriptor: %
experimental value: -72.2
--
compound: O=C1NC(=O)/C(=C/c2ccc3nccc(-c4ccncc4)c3c2)S1
subject of test: UACC-257 melanoma
test readout: growth
unit descriptor: %
experimental value: -33.5
--
compound: CC(C)CC(=O)Nc1n[nH]c2c1CN(C(=O)C1CCN(C)CC1)C2(C)C
subject of test: UACC-257 melanoma
test readout: growth
unit descriptor: %
experimental value: 15.5
--
compound: Cc1cn(-c2cc(NC(=O)c3ccc(C)c(Nc4nccc(-c5cnccn5)n4)c3)cc(C(F)(F)F)c2)cn1
subject of test: UACC-257 melanoma
test readout: growth
unit descriptor: %
experimental value: 38.4
--
compound: COc1cc2c(Oc3ccc4[nH]c(C)cc4c3F)ncnc2cc1OCCCN1CCCC1
subject of test: UACC-257 melanoma
test readout: growth
unit descriptor: %
experimental value: 98.8
--
compound: COc1cc2nccc(Oc3ccc(NC(=O)Nc4cc(C)on4)c(Cl)c3)c2cc1OC
subject of test: UACC-257 melanoma
test readout: growth
unit descriptor: %
experimental value: 19.6
--
compound: O=C(NC1CCNCC1)c1[nH]ncc1NC(=O)c1c(Cl)cccc1Cl
subject of test: UACC-257 melanoma
test readout: growth
unit descriptor: %
experimental value: -6.15
--
compound: COc1cccc(Nc2ncnn3ccc(CN4CC[C@@H](N)[C@H](O)C4)c23)c1
subject of test: UACC-257 melanoma
test readout: growth
unit descriptor: %
experimental value: 76.1
--
compound: COc1ccc(C(=O)N2c3ccccc3Sc3ccccc32)c(F)c1
subject of test: UACC-257 melanoma
test readout: growth
unit descriptor: %
experimental value: 67.1
--
compound: Cn1c(Nc2ccc(C(F)(F)F)cc2)nc2cc(Oc3ccnc(-c4ncc(C(F)(F)F)[nH]4)c3)ccc21
subject of test: UACC-257 melanoma
test readout: growth
unit descriptor: %
experimental value: 11.9
--
compound: Cc1cc(C2(c3ccc(O)c(C)c3)OS(=O)(=O)c3ccccc32)ccc1O
subject of test: UACC-257 melanoma
test readout: growth
unit descriptor: %
experimental value: 100
--
compound: O=C(c1c(F)ccc(NS(=O)(=O)N2CC[C@@H](F)C2)c1F)c1c[nH]c2ncc(-c3cnc(C4CC4)nc3)cc12
subject of test: UACC-257 melanoma
test readout: growth
unit descriptor: %
experimental value: -21.3
--
compound: Cc1ccc(N)cc1CN1C(=O)c2ccccc2C1=O
subject of test: UACC-257 melanoma
test readout: growth
unit descriptor: %
experimental value: 100
--
compound: Cc1cc(C(O)CN(C)C)cc2c1ccc1cc(C(C)C)ccc12 (stereo unspecified)
subject of test: UACC-257 melanoma
test readout: growth
unit descriptor: %
experimental value: -74.4
--
compound: Ic1ccccc1-c1ccccc1
subject of test: UACC-257 melanoma
test readout: growth
unit descriptor: %
experimental value: 99
